pest or weed control at 40 ppm listing for selected compounds.
Test system: Erysiphe graminis f. sp. tritici
TEST SUMMARY: Test L: wheat powdery mildew, preventive spray on wheat seedlings
CONDITION NOTES: Blumeria graminis, in Triticum aestivum, 168 h, read-out: Test L disease control rating, 40 ppm (*)
Write the value in % as a bare number.

- COMPOUND: "CC[C@H](C)Cn1c(-c2c(F)cc(F)cc2F)c(Cl)nc(-n2cccn2)c1=O [Compound 155]"
  SYSTEM UNDER TEST: "Erysiphe graminis f. sp. tritici"
  READOUT KIND: "pest or weed control at 40 ppm"
  UNIT TAG: "%"
  NUMERIC READOUT: 100
- COMPOUND: "O=c1c(-n2cccn2)nc(Cl)c(-c2c(F)cccc2F)n1-c1ccccc1 [Compound 161]"
  SYSTEM UNDER TEST: "Erysiphe graminis f. sp. tritici"
  READOUT KIND: "pest or weed control at 40 ppm"
  UNIT TAG: "%"
  NUMERIC READOUT: 90
- COMPOUND: "CCC(C)Cn1c(-c2ccc(F)cc2Cl)c(Cl)nc(-n2ccc(C)n2)c1=O (stereo not shown) [Compound 170]"
  SYSTEM UNDER TEST: "Erysiphe graminis f. sp. tritici"
  READOUT KIND: "pest or weed control at 40 ppm"
  UNIT TAG: "%"
  NUMERIC READOUT: 99

// below: pest or weed control at 40 ppm requested for another compound
pest or weed control at 40 ppm in this record for Cc1nc(-n2cccn2)c(=O)n(CC(C)C)c1-c1c(F)cccc1F [Compound 149] : 100
